These measurements were taken from patent US20220125947A1.

TARGET_OR_TEST_SYSTEM: T1, T cell receptor (TCR) Vγ9 (TRGV9) (human, UniProt Q99603 21-122); note: test concentration or dose not given here
T1 chain (looked up): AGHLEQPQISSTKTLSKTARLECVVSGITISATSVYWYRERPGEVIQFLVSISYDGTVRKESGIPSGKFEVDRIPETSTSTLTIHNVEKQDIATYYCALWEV
ASSAY_DETAILS: cell-based or functional assay
Below is a list of entries, each paired with its recorded CD25+ (Vg9+ cells), flow staining value.
Respond with the bare value in %.

Record excerpt, results attached:
VG9B469 (antibody, human IgG1, kappa, V domains shown) VH: EVQLVESGGGLVKPGGSLRLSCAASGFTFSHYDMNWVRQAPGKGLEWVSSISSSSSYIFYADSVKGRFTISRDNAKNSLLLQMNSLRAEDTAVYHCARDRGVGDTSDYYSFGLDVWGQGTMVTVSS VL: DIVMTQSPGTLSLSPGERATLSCRASQNVSSTYLAWYQQKPGQAPRLLIYGACSRATGIPDRFSGSGSGTDFTLTISRLEPEDYAVYYCQQYGSSPPYTFGRGTKLEIKR: 29.9
VG9B73 (antibody, human IgG1, kappa, V domains shown) VH: EVQLVQSGGGLVKPGGSLRLSCAASGFTFSNYDMNWVRQAPGKGLEWVSSISSSSSYIYYADSVKGRFTISRDNARNSLFLQMSSLRAEDTAVYYCAREIGVTGTTYYQDYGMDVWGQGTTVTVSS VL: EIVMTQSPGTLSLSPGERATLSCRASQSFSSNYLAWYQQKPGQAPRLLIYGASSRATGIPDRFSGSGSGTDFTLTISRLEPEDFALYYCQQYGSSPPFTFGQGTKVEIKR: 30.6

Next binder, CD25+ (Vg9+ cells), flow staining to be filled in.
Give its CD25+ (Vg9+ cells), flow staining value. Item: VG9B430 (antibody, human IgG1, kappa, V domains shown) VH: EVQLLESGGGLVKPGGSLRLSCSASGFTFSSYDMNWVRQAPGKGLEWVSSISSSSSYIYYADSVKGRFTISRDNAKNSLYLQMNSLRAEDTAVYHCARDVGVTTDYYYYGMDVWGQGTMVTVSS VL: EIVLTQSPGTLSLSPGDRATLSCRASQSVASSYLAWYQQKPGQSPRLLIYGASSRATGIPDRFSGSGSGTDFTLTISRLEPEDFAVYYCQQYGSSPPYTFGQGTKLEIKR
37.5
